# testedTarget: LRRK2 G2019S (Homo sapiens (Human), UniProt Q5S007, G2019S)
# Sequence (Q5S007 970-2527 G2019S): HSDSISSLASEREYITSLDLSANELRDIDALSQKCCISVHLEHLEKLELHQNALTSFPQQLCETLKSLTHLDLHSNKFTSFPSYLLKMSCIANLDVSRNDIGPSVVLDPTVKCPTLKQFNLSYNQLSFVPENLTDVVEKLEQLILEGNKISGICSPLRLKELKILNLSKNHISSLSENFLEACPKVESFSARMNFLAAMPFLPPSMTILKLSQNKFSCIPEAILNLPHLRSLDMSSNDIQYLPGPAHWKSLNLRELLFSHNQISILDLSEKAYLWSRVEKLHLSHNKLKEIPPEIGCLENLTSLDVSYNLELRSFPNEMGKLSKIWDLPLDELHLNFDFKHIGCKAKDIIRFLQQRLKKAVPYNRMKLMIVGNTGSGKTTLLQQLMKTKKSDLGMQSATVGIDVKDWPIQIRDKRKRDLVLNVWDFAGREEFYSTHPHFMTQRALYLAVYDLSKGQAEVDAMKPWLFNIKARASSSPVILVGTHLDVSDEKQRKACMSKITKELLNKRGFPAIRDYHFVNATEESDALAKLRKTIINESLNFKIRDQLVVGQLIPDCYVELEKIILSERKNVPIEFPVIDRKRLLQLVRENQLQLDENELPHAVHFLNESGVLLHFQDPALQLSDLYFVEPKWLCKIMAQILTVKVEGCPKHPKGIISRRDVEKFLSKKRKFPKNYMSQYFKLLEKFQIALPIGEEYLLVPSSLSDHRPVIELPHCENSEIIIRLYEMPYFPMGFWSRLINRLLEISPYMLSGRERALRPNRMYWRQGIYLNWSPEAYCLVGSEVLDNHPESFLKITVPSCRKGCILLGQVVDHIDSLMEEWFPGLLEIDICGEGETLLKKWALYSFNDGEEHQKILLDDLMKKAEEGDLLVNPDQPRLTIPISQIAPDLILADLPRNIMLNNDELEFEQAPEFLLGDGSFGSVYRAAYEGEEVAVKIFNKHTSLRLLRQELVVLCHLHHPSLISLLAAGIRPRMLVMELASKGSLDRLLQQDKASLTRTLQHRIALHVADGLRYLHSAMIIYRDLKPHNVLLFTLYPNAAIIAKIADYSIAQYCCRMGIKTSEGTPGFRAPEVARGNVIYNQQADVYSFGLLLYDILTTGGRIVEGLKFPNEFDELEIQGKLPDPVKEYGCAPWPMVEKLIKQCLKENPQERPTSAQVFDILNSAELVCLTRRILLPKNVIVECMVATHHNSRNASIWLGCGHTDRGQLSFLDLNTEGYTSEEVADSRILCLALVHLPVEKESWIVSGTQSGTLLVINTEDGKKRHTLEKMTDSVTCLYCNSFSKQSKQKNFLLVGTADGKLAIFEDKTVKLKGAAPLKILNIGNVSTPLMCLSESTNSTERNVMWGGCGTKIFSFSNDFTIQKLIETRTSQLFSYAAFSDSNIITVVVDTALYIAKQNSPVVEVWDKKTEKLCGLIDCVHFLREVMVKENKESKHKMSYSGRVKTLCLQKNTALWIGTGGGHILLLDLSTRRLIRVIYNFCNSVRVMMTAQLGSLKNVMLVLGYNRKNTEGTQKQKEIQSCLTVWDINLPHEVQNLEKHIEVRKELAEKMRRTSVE
# assaySummary: LRRK2 G2019S Kinase Assay
# Assay type: biochemical
# assaySetup: 10 μM ATP
reportedProperty: IC50

Known IC50 results, listed for orientation:
compound	IC50
FC1(F)CCN(c2cncc(-c3cnc4[nH]ccc4c3)n2)C1	> 500 nM
Cc1n[nH]c2ncc(-c3cncc(N4CCN(CCO)CC4)n3)cc12	< 500 nM
Cc1n[nH]c2ncc(Nc3ccc(N4CCN(C)CC4)c(F)c3)cc12	> 1000 nM

Prompt line: Suppose we examine the compound `CN(CC1CCOCC1)c1cncc(-c2cnc3[nH]cc(F)c3c2)n1` ; what IC50 value has been reported?
Response line: < 500 nM

Prompt line: Would you mind doing `Cc1n[nH]c2ncc(-c3cnccn3)cc12` as well?
Response line: > 1000 nM
